Tested on: CEM cells HIV-1 protection, formazan growth assay
Experiment Notes: NCI AIDS Antiviral Assay;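 active = compounds giving half or more protection of infected cells from virus-caused growth loss, again on retest; inactive = the rest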
Please state which outcome applies, choosing from True (active), False (inactive)

Input: Write down the call the test reported for this molecule. Item: "CCCCCCN1CCc2c(C)c(C#N)c3nc4ccccc4n3c21"
Output: False

Input: Write down the call the test reported for this molecule. Item: "Cn1c(COc2ccc(/C=N\N3CCN(/N=C\c4ccc(OCc5c[n+]6ccccc6n5C)cc4)CC3)cc2)c[n+]2ccccc12"
Output: False

Continuing:
Input: Write down the call the test reported for this molecule. Item: "Cc1ccc(N=Nc2c(-c3ccccc3)nn(C(=O)CC(=O)Nc3ccc(Cl)cc3)c2-c2ccccc2)cc1"
Output: False

Input: Write down the call the test reported for this molecule. Item: "O=C1c2ccccc2C(=O)N1CCC[P+](c1ccccc1)(c1ccccc1)c1ccccc1"
Output: False

Input: Write down the call the test reported for this molecule. Item: "CC(=O)NS(=O)(=O)c1ccc(NC(=O)c2ccccc2SSc2ccccc2[N+](=O)[O-])cc1"
Output: True

Input: Write down the call the test reported for this molecule. Item: "N#C/C=C(/NC(=O)Nc1ccccc1)N1CCCC1"
Output: False

Input: Write down the call the test reported for this molecule. Item: "Cc1cc([N+](=O)[O-])ccc1Sc1c2ccccc2nc2ccccc12"
Output: False

Input: Write down the call the test reported for this molecule. Item: "COc1ccc(C(=C(c2ccc(OC)cc2)c2ccc(OC)cc2)c2ccc(OC)cc2)cc1"
Output: False

Input: Write down the call the test reported for this molecule. Item: COC(=O)C1=CCC(n2cc(C)c(=O)[nH]c2=O)CC1 (centres undefined)
Output: False

Input: Write down the call the test reported for this molecule. Item: CC1N=C(SCC(=O)c2ccc(F)cc2)N2C(C)N=C(SCC(=O)c3ccc(F)cc3)N12 (centres undefined)
Output: False

Input: Write down the call the test reported for this molecule. Item: "COc1cc(O)c2c(=O)c(O)c(-c3ccc(O)c(O)c3)oc2c1"
Output: False

Input: Write down the call the test reported for this molecule. Item: C/C=C(\C)C(=O)O[C@@H]1CC(C)(C)CC2C3=CCC4[C@]56CC[C@](O)(OC5)C(C)(C)C6CC[C@@]4(C)C3(C)CC[C@]21C(=O)O (some centres undefined)
Output: False

Input: Write down the call the test reported for this molecule. Item: "C=C(C)[C@H]1C2=CC(C(=O)OC)=C(C[C@H](C(=C)C)[C@H]3O[C@H]3C3=C[C@H]1OC3=O)O2"
Output: False

Input: Write down the call the test reported for this molecule. Item: "Cc1cc(C(=O)CSC(=S)SC(C)(C)C)ccc1Cl"
Output: False

Input: Write down the call the test reported for this molecule. Item: CC(=O)N1C(=O)CC23c4cccc([N+](=O)[O-])c4C(=O)N2CCCN13 (centres undefined)
Output: False

Input: Write down the call the test reported for this molecule. Item: CCCCCCCCCCCC1CN=C(CCCCC2=NCC(CCCCCCCCCCC)N2)N1 (centres undefined)
Output: False

Input: Write down the call the test reported for this molecule. Item: "O=[N+]([O-])c1ccc(N2CCOS(=O)OCC2)cc1"
Output: False

Input: Write down the call the test reported for this molecule. Item: "N#C[C@H](c1ccccn1)c1nc2ccccc2nc1Cl"
Output: False

---

System: CEM cells HIV-1 protection, formazan growth assay
Experiment Notes: NCI AIDS Antiviral Assay
Setup Conditions: measured here: growth of uninfected CEM cells
pIC50: −log10 of the molar value.
Property: pIC50

Input: Requested read-out: pIC50. Entry: "O=C(OCCN1CCCCC1)c1cc2ccccc2[nH]1"
Output: < 3.70

Input: Requested read-out: pIC50. Entry: "COc1ccccc1N/N=c1/c2n(-c3ccc(Cl)cc3)c(=S)n(-c3ccccn3)c1=NCCN=2"
Output: < 3.70
